# Tested on: HEK293 SuperTOPFlash reporter cells, Wnt promoter
# Procedure details: HEK CELL Wnt Assay (luciferase reporter)
# Format: cell-based
# Experimental parameters: serial dilutions, with or without 50 ng/mL Wnt3a; 18 h
Metric name: IC50 (µM)

smiles=[2H]C1([2H])CSCc2c1nc(-c1ccc(C(F)(F)F)cc1)[nH]c2=O target_or_system="HEK293 SuperTOPFlash reporter cells, Wnt promoter" display_unit=µM reported=0.004
smiles=COCCOC(C)(C)c1ccc(-c2nc3c(c(=O)[nH]2)CSCC3)cc1 target_or_system="HEK293 SuperTOPFlash reporter cells, Wnt promoter" display_unit=µM reported=0.06
smiles=O=c1[nH]c(-c2ccc(-c3ccc(Br)nc3)nc2)nc2c1CSCC2 target_or_system="HEK293 SuperTOPFlash reporter cells, Wnt promoter" display_unit=µM reported=2.5
smiles=O=c1[nH]c(-c2ccc(-c3ccc(B(O)O)cc3)cc2O)nc2c1CSCC2 target_or_system="HEK293 SuperTOPFlash reporter cells, Wnt promoter" display_unit=µM reported=0.652
smiles=COCCOC(C)(C)c1c(F)cc(-c2nc3c(c(=O)[nH]2)CSCC3)cc1F target_or_system="HEK293 SuperTOPFlash reporter cells, Wnt promoter" display_unit=µM reported=0.4
smiles=O=c1[nH]c(-c2ccc3c(c2)COB3O)nc2c1CSCC2 target_or_system="HEK293 SuperTOPFlash reporter cells, Wnt promoter" display_unit=µM reported=7.5
smiles=O=c1[nH]c(-c2ccc(-c3ccc(B(O)O)c(O)c3)cc2)nc2c1CSCC2 target_or_system="HEK293 SuperTOPFlash reporter cells, Wnt promoter" display_unit=µM reported=0.036
smiles=O=c1[nH]c(-c2ccc(-c3ccc(Br)nc3)cc2)nc2c1CSCC2 target_or_system="HEK293 SuperTOPFlash reporter cells, Wnt promoter" display_unit=µM reported=0.017
smiles=N#Cc1ccc(-c2nc3c(c(=O)[nH]2)CSCC3)cc1 target_or_system="HEK293 SuperTOPFlash reporter cells, Wnt promoter" display_unit=µM reported=1
smiles=O=c1[nH]c(-c2ccc(-c3ccc(B(O)O)cn3)cc2)nc2c1CSCC2 target_or_system="HEK293 SuperTOPFlash reporter cells, Wnt promoter" display_unit=µM reported=0.25
smiles=O=c1[nH]c(-c2ccc(-c3ccc(Br)cc3)cc2)nc2c1CSCC2 target_or_system="HEK293 SuperTOPFlash reporter cells, Wnt promoter" display_unit=µM reported=0.1
smiles=COC(=O)NCCOC(C)(C)c1ccc(-c2ccc(-c3nc4c(c(=O)[nH]3)CSCC4)cc2)cc1 target_or_system="HEK293 SuperTOPFlash reporter cells, Wnt promoter" display_unit=µM reported=0.1
